All figures here come from patent US20230061973A1.

- experimental_target: T1, exemplary TAT frataxin fusion molecule (HIV-1, UniProt Q16595 1-210)
- T1 construct: in the bridging assays biotinylated and sulfotagged forms were used; also called TAT-FXN fusion molecule; TAT FXN fusion molecule
- T1 sequence: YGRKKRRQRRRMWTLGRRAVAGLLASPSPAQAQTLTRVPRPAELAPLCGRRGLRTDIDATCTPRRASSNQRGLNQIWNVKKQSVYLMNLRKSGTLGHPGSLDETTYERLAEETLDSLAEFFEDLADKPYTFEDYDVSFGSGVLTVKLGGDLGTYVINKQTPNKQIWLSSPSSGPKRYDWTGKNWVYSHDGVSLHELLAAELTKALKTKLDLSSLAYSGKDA
- assay_details: PK sandwich ELISA in human plasma, antibody as capture, HRP anti-frataxin mAb detection
Hi! Just check whether S/N at plasma conc. 6.40 ng/mL is below 9. Below gives yes, equal or above gives no.

Use the examples below as a reference point.
[
  {
    "binder": "antibody 10-9 (antibody, V domains shown, Rabbit monoclonal) VH: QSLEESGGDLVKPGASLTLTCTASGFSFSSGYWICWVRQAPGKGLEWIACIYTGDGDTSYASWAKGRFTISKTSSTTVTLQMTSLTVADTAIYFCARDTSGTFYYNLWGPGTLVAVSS VL: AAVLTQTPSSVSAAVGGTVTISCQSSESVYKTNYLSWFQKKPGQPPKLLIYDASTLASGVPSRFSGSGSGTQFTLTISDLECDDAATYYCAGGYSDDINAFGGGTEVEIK",
    "class_name": "no"
  },
  {
    "binder": "antibody 10-4 (antibody, V domains shown, Rabbit monoclonal) VH: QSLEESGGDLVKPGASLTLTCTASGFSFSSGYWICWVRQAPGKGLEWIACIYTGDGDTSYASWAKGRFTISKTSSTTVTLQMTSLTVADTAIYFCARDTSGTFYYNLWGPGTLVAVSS VL: DVVMTQTPSPVSAPVGGTVTINCQASQNIYSNLAWYQQKPGQPPKLLIYGASTLASGVSSRFKGSRSGTEFTLTISDLECADAATYYCQSYVYSSSTADTFGGGTKVVVE",
    "class_name": "yes"
  },
  {
    "binder": "antibody 10-12 (antibody, V domains shown, Rabbit monoclonal) VH: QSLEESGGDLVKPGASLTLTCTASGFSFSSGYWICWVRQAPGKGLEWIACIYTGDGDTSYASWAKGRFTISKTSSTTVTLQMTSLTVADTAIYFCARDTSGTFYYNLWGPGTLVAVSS VL: ELVLTQTASSVSAAVGGTVTISCQSSESVYKTNYLSWFQKKPGQPPKLLIYDASTLASGVPSRFSGSGSGTQFTLTISDLECDDAATYYCAGGYSDDINAFGGGTEVVVK",
    "class_name": "no"
  },
  {
    "binder": "antibody 10-5 (antibody, V domains shown, Rabbit monoclonal) VH: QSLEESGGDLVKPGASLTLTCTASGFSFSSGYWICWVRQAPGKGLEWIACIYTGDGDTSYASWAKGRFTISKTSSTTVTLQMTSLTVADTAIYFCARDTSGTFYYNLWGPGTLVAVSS VL: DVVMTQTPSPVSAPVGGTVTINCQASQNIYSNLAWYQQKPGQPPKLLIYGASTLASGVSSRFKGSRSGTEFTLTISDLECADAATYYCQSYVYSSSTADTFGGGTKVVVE",
    "class_name": "no"
  },
  {
    "binder": "antibody 10-1 (antibody, V domains shown, Rabbit monoclonal) VH: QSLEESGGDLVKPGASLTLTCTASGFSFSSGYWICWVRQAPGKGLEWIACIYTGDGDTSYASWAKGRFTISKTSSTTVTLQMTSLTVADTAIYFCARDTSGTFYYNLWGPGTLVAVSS VL: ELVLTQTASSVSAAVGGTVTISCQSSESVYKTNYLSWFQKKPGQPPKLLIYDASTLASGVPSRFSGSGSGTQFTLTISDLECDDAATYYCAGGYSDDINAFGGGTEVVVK",
    "class_name": "no"
  }
]

Task: State whether 9 exceeds S/N at plasma conc. 6.40 ng/mL recorded for antibody 12-8 (antibody, V domains shown, Rabbit monoclonal) VH: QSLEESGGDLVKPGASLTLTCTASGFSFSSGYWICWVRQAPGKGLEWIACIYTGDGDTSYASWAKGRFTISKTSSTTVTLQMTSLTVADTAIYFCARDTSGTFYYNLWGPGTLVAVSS VL: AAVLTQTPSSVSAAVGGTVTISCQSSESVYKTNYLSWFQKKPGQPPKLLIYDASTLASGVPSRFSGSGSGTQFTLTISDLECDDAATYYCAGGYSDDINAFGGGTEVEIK .
Result: yes

Task: State whether 9 exceeds S/N at plasma conc. 6.40 ng/mL recorded for antibody 12-3 (antibody, V domains shown, Rabbit monoclonal) VH: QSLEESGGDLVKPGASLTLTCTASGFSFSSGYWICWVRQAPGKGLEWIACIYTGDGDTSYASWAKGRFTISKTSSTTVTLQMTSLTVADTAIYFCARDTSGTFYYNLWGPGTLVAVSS VL: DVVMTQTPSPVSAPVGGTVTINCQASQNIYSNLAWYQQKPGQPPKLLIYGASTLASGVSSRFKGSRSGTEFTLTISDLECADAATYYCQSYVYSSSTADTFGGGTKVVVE .
Result: no
